System: Setaria viridis
Test: Herbicidal pre-emergence action
Type: in vivo
Conditions: pre-emergence method, 80 g/ha, greenhouse, visual assessment vs untreated controls
attributeMeasured: herbicidal effect SETVI (%)
Give bare numbers, in %.

Cc1cc(C)c(C2=C(OC(=O)C(C)C)C3CC4(CC3C2=O)OCC=CCO4)c(C)c1 (stereo not shown); 90
CC(=O)OC1=C(c2c(C)cc(C)cc2C)C(=O)C2CC3(COC(C)(C)O3)CC12 (mixture of isomers); 0
CCOC(=O)OC1=C(c2c(C)cc(C)cc2OC)C(=O)C2CC3(CC12)OCC=CCO3 (racemic); 90
C=C1CC2C(=O)C(c3c(CC)cc(C)cc3CC)=C([O-])C2C1.[Na+] (stereo not shown); 90
CCc1cc(C)cc(C)c1C1=C(OC(=O)OC(C)C)C2CC3(CC2C1=O)OCC=CCO3 (racemic); 100

Your task in this section: give herbicidal effect SETVI for each listed record.
1. Cc1cc(C)c(C2=C(OC(=O)C(C)C)C3CC4(COC(C)(C)O4)CC3C2=O)c(C)c1 (mixture of isomers)
2. CCc1cc(C)cc(C)c1C1=C(OC(=O)C(C)(C)C)C2CC3(CC2C1=O)OCC=CCO3 (stereo not shown)
3. CCOC(=O)OC1=C(c2c(CC)cc(C)cc2CC)C(=O)C2CC3(CC12)OCC(OCC)CO3 (stereo not shown)
4. COc1cc(C)cc(C)c1C1=C([O-])C2CC3(CC2C1=O)OCC=CCO3.[Na+] (stereo not shown)

1. 0
2. 70
3. 100
4. 90

For every listed record, write down its herbicidal effect SETVI.
1. CCC(=O)OC1=C(c2c(CC)cc(C)cc2CC)C(=O)C2CC3(CC12)OCCCO3 (stereo not shown)
2. CCc1cc(C)cc(CC)c1C1=C(O)[C@H]2CC3(C[C@H]2C1=O)OCCO3 (relative stereo)
3. CCc1cc(C)cc(CC)c1C1=C([O-])C2CC3(CC2C1=O)OCCCCO3.[Na+] (stereo not shown)
4. COC(=O)OC1=C(c2c(C)cc(C)cc2C)C(=O)C2CC3(COC(C)(C)O3)CC12 (mixture of isomers)
5. CCc1cc(C)cc(C)c1C1=C(O)C2CC3(CC2C1=O)OCCCCO3 (stereo not shown)
6. CCc1cc(C)cc(CC)c1C1=C(OC(=O)C(C)C)C2CC3(CC2C1=O)OCCS3 (mixture of isomers)

1: 40; 2: 90; 3: 90; 4: 0; 5: 60; 6: 20

// query herbicidal effect SETVI value for entry C=C1CC2C(=O)C(c3c(CC)cc(C)cc3CC)=C(OC(=O)OCC)C2C1 (stereo not shown) 80

* * *

Test system: Setaria viridis
Experiment: Herbicidal pre-emergence action
Assay type: in vivo
Details: pre-emergence method, 80 g/ha, greenhouse, visual assessment vs untreated controls
attributeMeasured: herbicidal effect SETVI (%)
Give bare numbers, in %.

Provide herbicidal effect SETVI values for the following items, in order.
1. CCc1cc(C)cc(CC)c1C1=C(O)[C@H]2CC3(C[C@H]2C1=O)OCCCCO3 (relative stereo) [I-a-13]
2. CCc1cc(C)cc(C)c1C1=C(OC(=O)C(C)C)C2CC3(CC2C1=O)OCCCCO3 (stereo not shown) [I-b-77]

[90, 60]

Dear reader, for each entry below, please note its herbicidal effect SETVI.
1. CCOC(=O)OC1=C(c2c(C)cc(C)cc2C)C(=O)C2CC3(CC12)OCCCCO3 (racemic) [I-c-50]
2. C=C1C[C@@H]2C(O)=C(c3c(CC)cc(C)cc3CC)C(=O)[C@@H]2C1 (stereo in doubt) [I-a-5]
3. CCc1cc(C)cc(CC)c1C1=C(O)[C@H]2CC3(C[C@H]2C1=O)OCC=CCO3 (relative stereo) [I-a-14]

0
70
90
